Answer each item with its documented melting point.

I'd like to know its melting point. The compound in question is CCNC(=O)[C@H]1O[C@@H](n2cnc3c(NNC(=O)c4ccco4)ncnc32)[C@H](O)[C@@H]1O [Compound 12b]
233 to 234 °C

Same thing, different compound: CCNC(=O)[C@H]1O[C@@H](n2cnc3c(NNC(=O)c4ccc[nH]4)nc(Cl)nc32)[C@H](O)[C@@H]1O [Compound 24b]
230 to 231 °C

Same thing, different compound: CCNC(=O)[C@H]1O[C@@H](n2cnc3c(NNC(=O)c4ccc(C)o4)ncnc32)[C@H](O)[C@@H]1O [Compound 14b]
154 to 155 °C

Same thing, different compound: CCNC(=O)[C@H]1O[C@@H](n2cnc3c(NNC(=O)c4cc(C)on4)nc(Cl)nc32)[C@H](O)[C@@H]1O [Compound 25b]
182 to 183 °C

Same thing, different compound: CCNC(=O)[C@H]1O[C@@H](n2cnc3c(NNC(=O)c4nc([N+](=O)[O-])cn4C)ncnc32)[C@H](O)[C@@H]1O [Compound 15b]
169 to 170 °C

Same thing, different compound: CCNC(=O)[C@H]1O[C@@H](n2cnc3c(NNC(=O)c4ccco4)nc(Cl)nc32)[C@H](O)[C@@H]1O [Compound 18b]
269 to 270 °C

Same thing, different compound: CCNC(=O)[C@H]1O[C@@H](n2cnc3c(NNC(=O)c4ccc(Br)o4)ncnc32)[C@H](O)[C@@H]1O [Compound 13b]
171 °C

----------
Answer each item with its documented melting point.

I'd like to know its melting point. The compound in question is CCNC(=O)[C@H]1O[C@@H](n2cnc3c(NNC(=O)Cc4cccs4)nc(Cl)nc32)[C@H](O)[C@@H]1O [Compound 20b]
153 to 154 °C

Same thing, different compound: CCNC(=O)[C@H]1O[C@@H](n2cnc3c(NNC(=O)c4ccc(C)s4)nc(Cl)nc32)[C@H](O)[C@@H]1O [Compound 19b]
156 °C

Same thing, different compound: CCNC(=O)[C@H]1O[C@@H](n2cnc3c(NNC(=O)c4ccc(C)s4)ncnc32)[C@H](O)[C@@H]1O [Compound 16b]
153 to 154 °C

Same thing, different compound: CCNC(=O)[C@H]1O[C@@H](n2cnc3c(NNC(=O)c4ccsc4)nc(Cl)nc32)[C@H](O)[C@@H]1O [Compound 21b]
249 to 250 °C

Same thing, different compound: CCNC(=O)[C@H]1O[C@@H](n2cnc3c(NNC(=O)c4ccc(Cl)cc4)ncnc32)[C@H](O)[C@@H]1O [Compound 10b]
188 to 189 °C

Same thing, different compound: CCNC(=O)[C@H]1O[C@@H](n2cnc3c(NNC(=O)c4cccnc4)ncnc32)[C@H](O)[C@@H]1O [Compound 11b]
170 °C

Same thing, different compound: CCNC(=O)[C@H]1O[C@@H](n2cnc3c(NNC(=O)c4cccs4)nc(Cl)nc32)[C@H](O)[C@@H]1O [Compound 22b]
189 to 190 °C

----------
- Measured Target: hA2B receptors expressed in CHO cells (Homo sapiens)
- Construct: expressed in transfected cells; host or cells: CHO cells
- Sequence (P29275 1-332): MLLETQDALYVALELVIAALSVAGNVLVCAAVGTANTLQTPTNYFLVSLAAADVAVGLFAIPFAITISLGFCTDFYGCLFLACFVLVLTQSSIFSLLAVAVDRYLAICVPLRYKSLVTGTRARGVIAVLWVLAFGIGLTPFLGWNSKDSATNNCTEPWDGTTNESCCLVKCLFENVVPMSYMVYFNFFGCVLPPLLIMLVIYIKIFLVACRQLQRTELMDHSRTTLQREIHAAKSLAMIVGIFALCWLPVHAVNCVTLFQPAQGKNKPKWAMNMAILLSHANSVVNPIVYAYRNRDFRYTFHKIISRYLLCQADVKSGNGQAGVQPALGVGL
- Experiment: cAMP assay hA2B CHO cells
- Assay type: cell-based
- Experimental Parameters: ratio hA1 Ki / hA2B EC50
Lab note: anything with Selectivity hA1/hA2B below 2 is marked TRUE; values at 2 or higher are marked FALSE.

Could you please tell me whether Selectivity hA1/hA2B recorded for CCNC(=O)[C@H]1O[C@@H](n2cnc3c(NNC(=O)c4ccsc4)nc(Cl)nc32)[C@H](O)[C@@H]1O [Compound 21b] is less than 2?
FALSE

Same thing, different molecule: CCNC(=O)[C@H]1O[C@@H](n2cnc3c(NNC(=O)c4ccc(C)s4)nc(Cl)nc32)[C@H](O)[C@@H]1O [Compound 19b]
FALSE

Same thing, different molecule: CCNC(=O)[C@H]1O[C@@H](n2cnc3c(NNC(=O)Cc4cccs4)nc(Cl)nc32)[C@H](O)[C@@H]1O [Compound 20b]
TRUE

Same thing, different molecule: CCNC(=O)[C@H]1O[C@@H](n2cnc3c(NNC(=O)c4ccco4)nc(Cl)nc32)[C@H](O)[C@@H]1O [Compound 18b]
FALSE

Same thing, different molecule: CCNC(=O)[C@H]1O[C@@H](n2cnc3c(NNC(=O)c4ccc(C)s4)ncnc32)[C@H](O)[C@@H]1O [Compound 16b]
FALSE

Same thing, different molecule: CCNC(=O)[C@H]1O[C@@H](n2cnc3c(NNC(=O)c4ccco4)ncnc32)[C@H](O)[C@@H]1O [Compound 12b]
FALSE

Same thing, different molecule: CCNC(=O)[C@H]1O[C@@H](n2cnc3c(NNC(=O)c4sccc4C)nc(Cl)nc32)[C@H](O)[C@@H]1O [Compound 23b]
FALSE

Same thing, different molecule: CCNC(=O)[C@H]1O[C@@H](n2cnc3c(NNC(=O)c4cccs4)nc(Cl)nc32)[C@H](O)[C@@H]1O [Compound 22b]
FALSE

Same thing, different molecule: CCNC(=O)[C@H]1O[C@@H](n2cnc3c(NNC(=O)c4ccc[nH]4)nc(Cl)nc32)[C@H](O)[C@@H]1O [Compound 24b]
TRUE

Same thing, different molecule: CCNC(=O)[C@H]1O[C@@H](n2cnc3c(NNC(=O)c4ccc(C)o4)ncnc32)[C@H](O)[C@@H]1O [Compound 14b]
FALSE

----------
- Measured Target: hA2B receptors expressed in CHO cells (Homo sapiens, UniProt P29275)
- Construct: expressed in transfected cells; host or cells: CHO cells
- Experiment: cAMP assay hA2B CHO cells
- Format: cell-based
- Experimental Parameters: ratio hA2A Ki / hA2B EC50
- Description: The effects of the tested compounds may be evaluated in functional assays measuring the stimulatory capability of the ligands to increase cAMP levels in hA2B receptors expressed in CHO cells. […] For cell preparation CHO cells transfected with human A2B or A3 receptors are washed with phosphate-buffered saline and diluted trypsin, and centrifuged for 10 min at 200 g. […] The clear supernatant is counted in a Beckman scintillation counter.
Measured Property: Selectivity hA2A/hA2B

I'd like to know its Selectivity hA2A/hA2B. The compound in question is CCNC(=O)[C@H]1O[C@@H](n2cnc3c(NNC(=O)c4cccs4)nc(Cl)nc32)[C@H](O)[C@@H]1O [Compound 22b]
>5.00

Same thing, different compound: CCNC(=O)[C@H]1O[C@@H](n2cnc3c(NNC(=O)c4ccc[nH]4)nc(Cl)nc32)[C@H](O)[C@@H]1O [Compound 24b]
>2.78

Same thing, different compound: CCNC(=O)[C@H]1O[C@@H](n2cnc3c(NNC(=O)c4ccsc4)nc(Cl)nc32)[C@H](O)[C@@H]1O [Compound 21b]
>2.22

Same thing, different compound: CCNC(=O)[C@H]1O[C@@H](n2cnc3c(NNC(=O)c4ccco4)ncnc32)[C@H](O)[C@@H]1O [Compound 12b]
>12.19

Same thing, different compound: CCNC(=O)[C@H]1O[C@@H](n2cnc3c(NNC(=O)c4ccc(C)s4)nc(Cl)nc32)[C@H](O)[C@@H]1O [Compound 19b]
>5.71

Same thing, different compound: CCNC(=O)[C@H]1O[C@@H](n2cnc3c(NNC(=O)c4ccco4)nc(Cl)nc32)[C@H](O)[C@@H]1O [Compound 18b]
>4.76

Same thing, different compound: CCNC(=O)[C@H]1O[C@@H](n2cnc3c(NNC(=O)c4sccc4C)nc(Cl)nc32)[C@H](O)[C@@H]1O [Compound 23b]
>2.94

Same thing, different compound: CCNC(=O)[C@H]1O[C@@H](n2cnc3c(NNC(=O)c4ccc(C)o4)ncnc32)[C@H](O)[C@@H]1O [Compound 14b]
5.73

Same thing, different compound: CCNC(=O)[C@H]1O[C@@H](n2cnc3c(NNC(=O)c4ccc(C)s4)ncnc32)[C@H](O)[C@@H]1O [Compound 16b]
>3.66

Same thing, different compound: CCNC(=O)[C@H]1O[C@@H](n2cnc3c(NNC(=O)Cc4cccs4)nc(Cl)nc32)[C@H](O)[C@@H]1O [Compound 20b]
1.05
